molecular target: Glycogen synthase kinase-3 beta (Homo sapiens, UniProt P49841); experiment: concentration-response blocking of human GSK3B – biochemical, luminescence, cell-free homogeneous, retest, dose response (AID 434954)
Sequence (P49841 whole entry): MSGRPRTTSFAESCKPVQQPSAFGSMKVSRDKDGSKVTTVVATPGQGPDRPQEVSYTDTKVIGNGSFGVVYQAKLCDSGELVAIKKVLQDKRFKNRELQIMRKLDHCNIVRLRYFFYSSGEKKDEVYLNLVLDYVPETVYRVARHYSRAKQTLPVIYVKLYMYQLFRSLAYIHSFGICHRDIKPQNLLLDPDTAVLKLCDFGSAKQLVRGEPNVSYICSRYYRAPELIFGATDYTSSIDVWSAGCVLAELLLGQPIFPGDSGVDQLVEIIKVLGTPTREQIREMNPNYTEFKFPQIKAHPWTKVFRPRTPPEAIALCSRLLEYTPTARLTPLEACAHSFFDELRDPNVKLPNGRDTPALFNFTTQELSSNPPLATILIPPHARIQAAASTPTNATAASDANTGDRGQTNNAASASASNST
Please provide measured EC50 for the entries that follow.
Numeric answer only, unit µM assumed.

Could you tell me which EC50 is on file for CN1CCN(c2ccccc2NC(=O)c2ccc(Br)o2)CC1 ?
19.3

Please give the measured EC50 for this molecule: COC(=O)c1nnn(-c2nonc2N)c1CSc1ccccn1
21.1

----------
biological target: Glycogen synthase kinase-3 beta (Homo sapiens, UniProt P49841); test: concentration-response blocking of human GSK3B – biochemical, luminescence, cell-free homogeneous, retest, dose response (AID 434954)
pEC50: −log10 of the molar value.
assay.endpoint: pEC50

Recorded pEC50 for O=S(=O)(Nc1cccnc1)c1ccc(C2CCCCC2)cc1 , please?
< 3.52

Report pEC50 for Cc1c(C(=O)O)cccc1-n1c(C)cc(CN=Nc2ccc([N+](=O)[O-])cn2)c1C please.
4.67

Endpoint output: pEC50 of N#CCCn1cc(C(=O)O)c(-c2cccc([N+](=O)[O-])c2)n1 . Value?
< 3.52

I would be grateful if you could share the reported pEC50 for c1ccc(-n2cnnc2SCc2cn3cccnc3n2)cc1 .
< 3.52

Using the record for Cc1ccnc(NC(=O)c2ccccc2[N+](=O)[O-])c1 , report its pEC50.
< 3.52

Which pEC50 reading was recorded for the compound O=C(Nc1ccccc1)Nc1ccncc1 ?
< 3.52

Can you share its pEC50? I mean this compound: Cc1ccc(C)c(N2CCN(C(=O)Cn3ncc4c([nH]c5ccc(C)cc54)c3=O)CC2)c1
< 3.52

Cited source: BindingDB's records for doi:10.7270/Q2TX3CTT
